Source: patent US20250195521A1

assayed-system: K-Ras G12C(GMP-PNP) binding to BRAF RBD (Homo sapiens (Human), UniProt P01116+P62937, G12C)
Sequence (P01116 other isoform, or with tags, fused parts or gaps G12C): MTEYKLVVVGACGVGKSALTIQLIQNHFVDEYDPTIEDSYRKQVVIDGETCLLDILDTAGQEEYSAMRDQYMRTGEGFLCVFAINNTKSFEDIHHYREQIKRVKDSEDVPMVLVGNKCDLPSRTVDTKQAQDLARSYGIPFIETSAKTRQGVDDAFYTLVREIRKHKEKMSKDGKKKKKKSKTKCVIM
Sequence (P62937 whole entry): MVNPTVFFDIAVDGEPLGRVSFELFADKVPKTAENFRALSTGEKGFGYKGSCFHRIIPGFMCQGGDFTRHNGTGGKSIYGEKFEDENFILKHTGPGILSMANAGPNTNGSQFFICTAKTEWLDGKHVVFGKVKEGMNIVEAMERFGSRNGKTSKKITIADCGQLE
test-method-notes: Disruption of BRAF RBD interaction with K-Ras (FRET / MOA assay), K-Ras G12C
Type: biochemical
condition-context: read-out: KRAS G12C FRET IC50
Text: Note—The following protocol describes a procedure for monitoring disruption of K-Ras G12C(GMP-PNP) binding to BRAF^RBD by a compound of the invention. This protocol may also be executed substituting other Ras proteins or nucleotides. […]
assay-metric: IC50

[
  {
    "compound": "CCn1c(-c2cccnc2[C@H](C)OC)c2c3cc(ccc31)-c1csc(n1)C[C@H](NC(=O)[C@H](C(C)C)N(C)C(=O)N1C[C@H]3CN(C)CC[C@H]31)C(=O)N1CCC[C@H](N1)C(=O)OCC(C)(C)C2",
    "IC50": "0.1 to 1 µM"
  }
]

Indicate its recorded IC50; the compound in question is `CCn1c(-c2cccnc2[C@H](C)OC)c2c3cc(ccc31)-c1cccc(c1)C[C@H](NC(=O)[C@H](C(C)C)N1CC[C@]3(CCN(C(=O)C#CC(C)(C)N4CCC4)C3)C1=O)C(=O)N1CCC[C@H](N1)C(=O)OCC(C)(C)C2`
< 0.01 µM

Indicate its recorded IC50; the compound in question is `CCn1c(-c2cccnc2[C@H](C)OC)c2c3cc(ccc31)-c1csc(n1)C[C@H](NC(=O)[C@H](C(C)C)N(C)C(=O)N1CCC13CCOCC3)C(=O)N1CCC[C@H](N1)C(=O)OCC(C)(C)C2`
< 0.01 µM

Indicate its recorded IC50; the compound in question is `CCn1c(-c2cccnc2[C@H](C)OC)c2c3cc(ccc31)-c1cc(O)cc(c1)C[C@H](NC(=O)[C@H](C(C)C)N(C)C(=O)[C@H]1C[C@@H]1F)C(=O)N1CCC[C@H](N1)C(=O)OCC(C)(C)C2`
0.1 to 1 µM

Indicate its recorded IC50; the compound in question is `CCn1c(-c2cccnc2[C@H](C)OC)c2c3cc(ccc31)-c1csc(n1)C[C@H](NC(=O)C1CC1)C(=O)N1CCC[C@H](N1)C(=O)OCC(C)(C)C2`
0.01 to 0.1 µM

Indicate its recorded IC50; the compound in question is `CCn1c(-c2cccnc2[C@H](C)OC)c2c3cc(ccc31)-c1cc(O)cc(c1)C[C@H](NC(=O)[C@H](C(C)C)N(C)C(=O)[C@H]1CCN(C(=O)[C@H]3CCCN3)C1)C(=O)N1CCC[C@H](N1)C(=O)OCC(C)(C)C2`
0.1 to 1 µM

Indicate its recorded IC50; the compound in question is `CCn1c(-c2cccnc2[C@H](C)OC)c2c3cc(ccc31)-c1csc(n1)C[C@H](NC(=O)[C@H](C(C)C)N(C)C(=O)N1CC(O)(CN(C)C)C1)C(=O)N1CCC[C@H](N1)C(=O)OCC(C)(C)C2`
0.01 to 0.1 µM

Indicate its recorded IC50; the compound in question is C=CC(=O)C1CC[C@H](C(=O)N(C)[C@H](C(=O)N[C@H]2Cc3cccc(c3)-c3ccc4c(c3)c(c(-c3cccnc3[C@H](C)OC)n4CC)CC(C)(C)COC(=O)[C@@H]3CCCN(N3)C2=O)C(C)(C)F)C1 (some centres unmarked)
0.1 to 1 µM

Indicate its recorded IC50; the compound in question is `CCn1c(-c2cccnc2[C@H](C)OC)c2c3cc(ccc31)-c1cc(O)cc(c1)C[C@H](NC(=O)[C@H](C(C)C)N(C)C(=O)[C@@H]1[C@H]3CC[C@H](C3)[C@@H]1N)C(=O)N1CCC[C@H](N1)C(=O)OCC(C)(C)C2`
0.01 to 0.1 µM

Indicate its recorded IC50; the compound in question is `CCn1c(-c2cccnc2[C@H](C)OC)c2c3cc(ccc31)-c1csc(n1)C[C@H](NC(=O)[C@H](C(C)C)N(C)C(=O)N1CC3(CCN(C)C3)C1)C(=O)N1CCC[C@H](N1)C(=O)OCC(C)(C)C2`
0.01 to 0.1 µM
